- procedureText: Parallel artificial membrane permeability (IAM column) prediction of CNS permeability
- Format: in vitro ADME
outcomeMeasure: CNS perm (PAMPA)

Examples with their reported CNS perm (PAMPA) follow.
CC[C@H]1C[C@@]2(C)c3cc(OC(=O)Nc4ccccc4)ccc3N(C)[C@H]2O1 : 3
COc1cccc(NC(=O)Oc2ccc3c(c2)[C@]2(C)CCO[C@@H]2N3C)c1 : 2.3

Consider the compound shown here: Cc1cc(C)cc(NC(=O)Oc2ccc3c(c2)[C@]2(C)CCO[C@@H]2N3C)c1 What is its recorded CNS perm (PAMPA)?
3.1

Report CNS perm (PAMPA) for CN1c2ccc(OC(=O)Nc3ccccn3)cc2[C@]2(C)CCO[C@H]12 please.
1.9

Requested read-out: CNS perm (PAMPA). Entry: COc1cc(NC(=O)Oc2ccc3c(c2)[C@]2(C)CCO[C@@H]2N3C)cc(OC)c1
1.8

Look up CNS perm (PAMPA) for this compound: COc1ccc(NC(=O)Oc2ccc3c(c2)[C@]2(C)CCO[C@@H]2N3C)cc1
2

Need CNS perm (PAMPA), item CN1c2ccc(OC(=O)Nc3cncc(F)c3)cc2[C@]2(C)CCO[C@H]12
2

Can you look up the measured CNS perm (PAMPA) of CN1c2ccc(OC(=O)NC3CCCCC3)cc2[C@]2(C)CCO[C@H]12 for me?
2.8
